# tgt: 14-3-3/NFκBp65 peptide (Homo sapiens, UniProt P31947)
# Sequence (P31947 whole entry, other chains not shown, the tested form may be a part): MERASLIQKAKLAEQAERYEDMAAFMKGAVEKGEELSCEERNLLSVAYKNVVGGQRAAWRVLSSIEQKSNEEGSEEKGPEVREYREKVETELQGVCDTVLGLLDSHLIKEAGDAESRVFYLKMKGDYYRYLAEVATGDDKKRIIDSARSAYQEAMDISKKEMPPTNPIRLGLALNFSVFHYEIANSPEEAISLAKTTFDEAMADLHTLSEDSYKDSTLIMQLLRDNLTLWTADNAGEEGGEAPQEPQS
# assayProtocol: Fluorescence polarization assay, FITC-NFκBp65 peptide binding to 14-3-3 with increasing fragment
# measurementParameters: read-out: EC50 (stabilizes interaction of peptide with 14-3-3)
readout: EC50 (µM)
Reply with just the number (in µM).

Tell me EC50 reported for CC1CN(S(=O)(=O)c2ccc(C=O)cc2)CC(C)O1 (stereo not shown) 370

====

# tgt: p65_45/14-3-3γ (Homo sapiens, UniProt P61981)
# Sequence (P61981 whole entry, other chains not shown, the tested form may be a part): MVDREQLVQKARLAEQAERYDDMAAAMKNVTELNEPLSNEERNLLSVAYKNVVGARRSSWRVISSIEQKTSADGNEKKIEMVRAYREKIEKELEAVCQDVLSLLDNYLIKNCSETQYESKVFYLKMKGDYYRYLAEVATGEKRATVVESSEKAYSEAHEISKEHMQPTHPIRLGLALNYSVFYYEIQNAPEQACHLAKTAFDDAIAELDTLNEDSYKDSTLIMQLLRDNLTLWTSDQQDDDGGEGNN
# assayProtocol: Fluorescence anisotropy protein titration, p65_45 peptide/14-3-3γ in presence of 1 mM fragment
# Type: binding
# Design: The full length 14-3-3γ was dialysis against 25 mM HEPES pH7.5; made in house; host or cells: E. coli BL21(DE3), pPROEX HTb
# measurementParameters: Table 9; fold-change of apparent KD vs DMSO control
Marks after values point to notes of the source that are not given here.
readout: SF

Tell me SF reported for COc1ccc2c(c1)CCCN2S(=O)(=O)c1ccc(C=O)cc1 [24e] 34

Tell me SF reported for O=Cc1ccc(S(=O)(=O)N2CCCc3cc(F)ccc32)cc1 [24c] 56

Tell me SF reported for O=Cc1ccc(S(=O)(=O)N2CCCc3cc(Cl)ccc32)cc1 [24d] 36

Tell me SF reported for O=Cc1ccc(S(=O)(=O)N2CCc3ccccc3C2)cc1 [23y] 0.7^a

Tell me SF reported for O=Cc1ccc(S(=O)(=O)N2CCc3ccccc32)cc1 [24a] 30

Let's switch to this compound now.
Tell me SF reported for O=Cc1ccc(S(=O)(=O)N2CCOc3cc(Cl)ccc32)cc1 [24h] 28
